Values from ChEMBL document CHEMBL3739379

What viability at 24 h, 0.5 ug/ml was measured for each of the following?
Experiment: Cytotoxicity against human Hep2 cells assessed as cell survival at 0.5 ug/ml after 24 hrs by trypan blue exclusion test (reference value: 87 to 94%)
Format: cell-based, HEp-2
Details: read-out: Survival
Hey, just the number and the unit after it is fine.

Request: Please look up its viability at 24 h, 0.5 ug/ml: CCCCC/C(C)=N/N=C1\SCC(=O)N1Cc1ccc([N+](=O)[O-])cc1
Response: 93.5%

Request: Please look up its viability at 24 h, 0.5 ug/ml: C/C(CC(C)C)=N\N=C1/SCC(=O)N1Cc1cccc2ccccc12
Response: 91%

Request: Please look up its viability at 24 h, 0.5 ug/ml: C/C(CC(C)C)=N\N=C1/SCC(=O)N1CN1C(=O)c2ccccc2C1=O
Response: 92.8%

Request: Please look up its viability at 24 h, 0.5 ug/ml: C/C(CC(C)C)=N\N=C1/SCC(=O)N1Cc1ccc([N+](=O)[O-])cc1
Response: 92.5%

Request: Please look up its viability at 24 h, 0.5 ug/ml: O=C1CS/C(=N\N=C2CCCC2)N1Cc1ccc([N+](=O)[O-])cc1
Response: 88%

Request: Please look up its viability at 24 h, 0.5 ug/ml: CC(C)=N/N=C1\SCC(=O)N1CN1C(=O)c2ccccc2C1=O
Response: 73%

---

Test system: Candida tropicalis
Assay: Antifungal activity against Candida tropicalis clinical isolate after 24 hrs by sabouraud dextrose broth based microdilution method
Assay type: functional
PROPERTY NAME: MIC (µg/mL)
All answers are understood in µg/mL, so give the number only.

Request: Please look up its MIC: C/C(=N\N=C1/SCC(=O)N1Cc1cccc2ccccc12)C1CCCCC1
Response: 256

Request: Please look up its MIC: CC1CC/C(=N\N=C2/SCC(=O)N2Cc2ccc([N+](=O)[O-])cc2)C1 (configuration not stated)
Response: 128

Request: Please look up its MIC: C/C(=N\N=C1/SCC(=O)N1Cc1ccc([N+](=O)[O-])cc1)c1ccccc1
Response: 2

Request: Please look up its MIC: C=CCC/C(C)=N/N=C1\SCC(=O)N1Cc1ccc([N+](=O)[O-])cc1
Response: 8

Request: Please look up its MIC: C[C@@H]1[C@H](O)[C@@H](C)/C=C/C=C/C=C/C=C/C=C/C=C/C=C/[C@H](O[C@@H]2O[C@H](C)[C@@H](O)[C@H](N)[C@@H]2O)C[C@@H]2O[C@](O)(C[C@@H](O)C[C@@H](O)[C@H](O)CC[C@@H](O)C[C@@H](O)CC(=O)O[C@H]1C)C[C@H](O)[C@H]2C(=O)O
Response: 2

Request: Please look up its MIC: O=C1CS/C(=N\N=C2CCCCCC2)N1Cc1ccc([N+](=O)[O-])cc1
Response: 16

Request: Please look up its MIC: CCC/C(C)=N/N=C1\SCC(=O)N1Cc1cccc2ccccc12
Response: 64

Request: Please look up its MIC: CCC/C(C)=N/N=C1\SCC(=O)N1Cc1ccc([N+](=O)[O-])cc1
Response: 64

Request: Please look up its MIC: O=C1CS/C(=N\N=C\c2cccc3ccccc23)N1Cc1ccc([N+](=O)[O-])cc1
Response: 16

Request: Please look up its MIC: O=C1CS/C(=N\N=C\c2cccc3ccccc23)N1Cc1cccc2ccccc12
Response: 32

Request: Please look up its MIC: C/C(=N\N=C1/SCC(=O)N1CN1C(=O)c2ccccc2C1=O)c1ccccc1
Response: 8

Request: Please look up its MIC: C/C(=N\N=C1/SCC(=O)N1Cc1ccc([N+](=O)[O-])cc1)c1cccs1
Response: 4
